// provenance: PubChem BioAssay AID651814

target: DNA dC->dU-editing enzyme APOBEC-3F (Homo sapiens) (UniProt Q8IUX4); assay: qHTS for inhibitors of Vif-A3F interactions: Cherry picks; settings: HeLa A3F-eYFP + Vif (tagged APOBEC3F with the HIV-1 protein that degrades it), eYFP fluorescence, 24 h;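 further: % of control where 0% means no effect; active compounds raise eYFP fluorescence by blocking Vif-driven A3F loss; nearly all actives have a fitted effect of over 70% in size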
Sequence (Q8IUX4 whole entry, looked up): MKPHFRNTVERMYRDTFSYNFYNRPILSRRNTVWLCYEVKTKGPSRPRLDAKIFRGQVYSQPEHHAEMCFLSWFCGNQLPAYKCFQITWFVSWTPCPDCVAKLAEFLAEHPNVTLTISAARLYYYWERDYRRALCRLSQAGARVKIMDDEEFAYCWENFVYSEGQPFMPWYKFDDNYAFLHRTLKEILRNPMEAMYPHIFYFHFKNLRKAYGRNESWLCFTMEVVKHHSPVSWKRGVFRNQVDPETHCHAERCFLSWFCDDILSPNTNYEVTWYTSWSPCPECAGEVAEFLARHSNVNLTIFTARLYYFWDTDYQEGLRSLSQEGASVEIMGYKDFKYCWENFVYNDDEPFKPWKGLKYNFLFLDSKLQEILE
The whole screen tested about 2,100 compounds, of which about 590 (28%) were called active. About 42% were inconclusive and are not listed. This is one part of the list.
For each entry below, report its max response value.
Answers are plain numbers, in %.

Sample records with max response:
molecule=S=c1[nH]cnc2sc(-c3ccccc3)cc12 value_kind="max response" u=% meas_value=-2.16
molecule=Cc1c(N/N=C(\C#N)C(=O)c2ccc(Cl)cc2)c(=O)n(-c2ccccc2)n1C value_kind="max response" u=% meas_value=-12.8
molecule=C/C(=N\NC(=O)c1cc(C)nc2ccccc12)c1ccncc1 value_kind="max response" u=% meas_value=-5.92
molecule=Cc1ccc(S(=O)(=O)N2CCN(C(=O)CSC(=S)N3CCCC3)CC2)c(C)c1 value_kind="max response" u=% meas_value=1.16

Lab note: each molecule below needs its max response filled in.
1. Cc1ccc(NC(=O)C2CCN(S(=O)(=O)c3ccc(Cl)c(C(F)(F)F)c3)CC2)nc1
2. C=CCOC(=O)C1=C(C)NC(C)=C(C(=O)OCC=C)C1c1cn(-c2ccccc2)nc1-c1ccco1
3. CC(C)COc1ccc(C(=O)N/C(=C/c2cccc([N+](=O)[O-])c2)C(=O)O)cc1
4. COc1cc(OC)cc(C(=O)Nc2ccc(N3CCN(C(=O)c4cccs4)CC3)cc2)c1
5. O=S(=O)(Nc1nc2n(n1)C(c1ccccc1)C=C(c1ccc(Cl)cc1)N2)c1ccccc1 (configuration not stated)

[1.5, 0.509, -0.401, -11.5, -9.71]
